STUDY_SYSTEM: Urokinase-type plasminogen activator (Homo sapiens) (UniProt P00749)
ASSAY_SUMMARY: Compound was evaluated for its inhibitory activity against urokinase at 100 uM concentration of substrate
Design: scale not given: the % may be the effect or the level left
Where a SMILES comes first, the peptide text is derived from it. The star is where a group is joined. AMC = Cc1cc(=O)oc2cc(N*)ccc12
ATTRIBUTE_MEASURED: Control (%)

MOLECULE	Control (%)
CC(=O)NC(Cc1ccccc1)C(=O)NCC(=O)NC(CCCN=C(N)N)C(=O)Nc1ccc2c(C)cc(=O)oc2c1 (stereo not drawn) (Ac-Phe-Gly-Arg-{AMC}; configuration not given here)	3.9

1. CC(=O)N[C@@H](Cc1ccccc1)C(=O)N[C@@H](CO)C(=O)N[C@@H](CCCN=C(N)N)C(=O)Nc1ccc2c(C)cc(=O)oc2c1 (Ac-Phe-Ser-Arg-{AMC})
2. Cc1cc(=O)oc2cc(NC(=O)C(CCCN=C(N)N)NC(=O)CNC(=O)C(N)CCC(=O)O)ccc12 (stereo not drawn) (H-Glu-Gly-Arg-{AMC}; configuration not given here)
3. CC(=O)N[C@@H](Cc1ccccc1)C(=O)N[C@@H](C)C(=O)N[C@@H](CCCN=C(N)N)C(=O)Nc1ccc2c(C)cc(=O)oc2c1 (Ac-Phe-Ala-Arg-{AMC})
q: Output the entries ranked by Control from maximum down to minimum. List each label, following the requested order.
a: 2, 1, 3

* * *

STUDY_SYSTEM: Cathepsin B (Homo sapiens) (UniProt P07858)
ASSAY_SUMMARY: Compound was evaluated for its inhibitory activity against cathepsin B at 100 uM concentration of substrate
Set-up: scale not given: the % may be the effect or the level left
Where a SMILES comes first, the peptide text is derived from it. [ ]: non-standard residue; d: D form. The star is where a group is joined. AMC = Cc1cc(=O)oc2cc(N*)ccc12; Orn = NCCC[C@H](N)C(=O)O; Boc = CC(C)(C)OC(=O)*
ATTRIBUTE_MEASURED: Control (%)

COMPOUND	UNIT_ANNOTATION	Control
CC(=O)N[C@@H](Cc1ccccc1)C(=O)N[C@@H](CCCN)C(=O)N[C@@H](CCCN=C(N)N)C(=O)Nc1ccc2c(C)cc(=O)oc2c1 (Ac-Phe-[Orn]-Arg-{AMC})	%	18

a. CC(=O)N[C@@H](Cc1ccccc1)C(=O)N[C@H](C(=O)N[C@@H](CCCCN)C(=O)Nc1ccc2c(C)cc(=O)oc2c1)C(C)C (Ac-Phe-Val-Lys-{AMC})
b. Cc1cc(=O)oc2cc(NC(=O)[C@H](CCCN=C(N)N)NC(=O)[C@H](CCCCN)NC(=O)[C@H](CC(C)C)NC(=O)OC(C)(C)C)ccc12 (Boc-Leu-Lys-Arg-{AMC})
c. CC(=O)N[C@@H](Cc1ccccc1)C(=O)N[C@@H](CCCN=C(N)N)C(=O)N[C@@H](CCCN=C(N)N)C(=O)Nc1ccc2c(C)cc(=O)oc2c1 (Ac-Phe-Arg-Arg-{AMC})
q: Ascending by Control, please: list the compounds accordingly. List each label, following the requested order.
a: a, c, b

a. CSCC[C@H](NC(=O)[C@H](Cc1ccccc1)NC(C)=O)C(=O)N[C@@H](CCCCN)C(=O)Nc1ccc2c(C)cc(=O)oc2c1 (Ac-Phe-Met-Lys-{AMC})
b. CC(=O)N[C@@H](Cc1ccccc1)C(=O)N[C@@H](CCCN=C(N)N)C(=O)N[C@@H](CCCCN)C(=O)Nc1ccc2c(C)cc(=O)oc2c1 (Ac-Phe-Arg-Lys-{AMC})
q: Smaller Control value, a vs b ? Identify your selection by its label.
a: a

1. CC(=O)N[C@@H](Cc1ccccc1)C(=O)N[C@@H](CCCN)C(=O)N[C@@H](CCCCN)C(=O)Nc1ccc2c(C)cc(=O)oc2c1 (Ac-Phe-[Orn]-Lys-{AMC})
2. CC(=O)N[C@@H](Cc1ccccc1)C(=O)N[C@@H](CCCCN)C(=O)N[C@@H](CCCN=C(N)N)C(=O)Nc1ccc2c(C)cc(=O)oc2c1 (Ac-Phe-Lys-Arg-{AMC})
q: // max by Control over [ 1 , 2 ] Identify your selection by its label.
a: 2
(2: 43%, 1: 21%)
